# Measurement target: T1, IL-18 receptor (IL-18R) on HEK-Blue IL-18 reporter cells (UniProt Q13478 19-541; O95256 20-599, limits assumed)
# T1 sequence (looked up) 1: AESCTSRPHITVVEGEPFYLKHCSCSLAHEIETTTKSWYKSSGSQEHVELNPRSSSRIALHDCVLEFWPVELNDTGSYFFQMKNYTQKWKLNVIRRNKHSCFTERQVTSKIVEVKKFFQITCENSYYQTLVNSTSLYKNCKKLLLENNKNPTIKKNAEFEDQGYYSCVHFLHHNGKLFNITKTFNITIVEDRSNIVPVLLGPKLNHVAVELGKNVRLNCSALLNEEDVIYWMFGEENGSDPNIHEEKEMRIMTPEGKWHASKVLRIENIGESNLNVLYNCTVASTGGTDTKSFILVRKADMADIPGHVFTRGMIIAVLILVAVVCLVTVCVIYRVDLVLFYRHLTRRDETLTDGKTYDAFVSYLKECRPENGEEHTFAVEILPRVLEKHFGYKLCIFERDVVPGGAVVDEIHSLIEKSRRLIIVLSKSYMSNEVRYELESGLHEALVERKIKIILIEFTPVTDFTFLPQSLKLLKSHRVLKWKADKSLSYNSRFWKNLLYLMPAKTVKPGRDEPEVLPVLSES
# T1 sequence (looked up) 2: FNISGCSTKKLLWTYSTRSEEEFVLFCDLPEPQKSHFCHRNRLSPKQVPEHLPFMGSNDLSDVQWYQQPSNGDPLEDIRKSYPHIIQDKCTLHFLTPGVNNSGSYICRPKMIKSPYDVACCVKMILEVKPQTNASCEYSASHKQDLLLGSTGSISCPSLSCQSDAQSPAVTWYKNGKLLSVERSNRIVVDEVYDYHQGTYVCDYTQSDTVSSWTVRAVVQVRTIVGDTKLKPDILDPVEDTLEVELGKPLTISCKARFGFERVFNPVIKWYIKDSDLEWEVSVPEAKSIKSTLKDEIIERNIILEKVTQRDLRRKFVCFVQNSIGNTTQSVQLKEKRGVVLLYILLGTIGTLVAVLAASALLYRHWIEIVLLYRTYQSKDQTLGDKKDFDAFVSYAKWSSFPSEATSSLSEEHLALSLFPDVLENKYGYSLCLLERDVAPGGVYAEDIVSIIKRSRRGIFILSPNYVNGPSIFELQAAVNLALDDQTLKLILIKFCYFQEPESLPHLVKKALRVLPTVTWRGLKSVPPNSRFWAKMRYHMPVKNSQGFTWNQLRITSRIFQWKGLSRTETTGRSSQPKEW
# Experimental protocol: cell-based or functional assay
// values below are reported EC50 (read off the curve); HEK-Blue IL-18 SEAP reporter, OD 655 nM

Solved entries (count: 2):
INSERT INTO assay_data (binder, observed_result) VALUES
  ('6-27 (ligand, recombinant with C-terminal hexahistidine tag in SPR and cell assays; also called h6-27; version 2.0 human DR-IL-18 variant) YFGKLESKLSVIRNLNDQVLFIDQGNRPLFEDMTDSDCRDNAPRTIFIISKYSDSRARGLAVTISVKCEKISTLSCENKIISFKEMNPPDNIKDTKSDIIFFARSVPGHGRKTQFESSSYEGYFLACEKERDLFKLILKKEDELGDRSIMFTVQNED', '~1 nM'),
  ('6-12 (ligand, recombinant with C-terminal hexahistidine tag in SPR and cell assays; also called h6-12; version 2.0 human DR-IL-18 variant) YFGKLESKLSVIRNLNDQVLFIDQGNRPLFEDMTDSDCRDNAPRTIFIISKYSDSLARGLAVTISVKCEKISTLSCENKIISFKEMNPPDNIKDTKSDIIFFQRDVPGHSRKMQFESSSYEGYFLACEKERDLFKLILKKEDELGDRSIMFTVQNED', '~0.6 nM');

6-31 (ligand, recombinant with C-terminal hexahistidine tag in SPR and cell assays; also called h6-31; version 2.0 human DR-IL-18 variant) YFGKLESKLSVIRNLNDQVLFIDQGNRPLFEDMTDSDCRDNAPRTIFIISKYGDSGARGLAVTISVKCEKISTLSCENKIISFKEMNPPDNIKDTKSDIIFFERDVPGHSGKVQFESSSYEGYFLACEKERDLFKLILKKEDELGDRSIMFTVQNED yielded EC50 (read off the curve); HEK-Blue IL-18 SEAP reporter, OD 655 nM of ~4 nM

6-29 (ligand, recombinant with C-terminal hexahistidine tag in SPR and cell assays; also called h6-29; version 2.0 human DR-IL-18 variant) YFGKLESKLSVIRNLNDQVLFIDQGNRPLFEDMTDSDCRDNAPRTIFIISKYSDSRARGLAVTISVKCEKISTLSCENKIISFKEMNPPDNIKDTKSDIIFFQRNVPGHGRKMQFESSSYEGYFLACEKERDLFKLILKKEDELGDRSIMFTVQNED yielded EC50 (read off the curve); HEK-Blue IL-18 SEAP reporter, OD 655 nM of ~0.9 nM
